Value source: the RNAGym collection of RNA variant scans (doi:10.7554/elife.80360)

B1: HDV Ribozyme (parent)
chain: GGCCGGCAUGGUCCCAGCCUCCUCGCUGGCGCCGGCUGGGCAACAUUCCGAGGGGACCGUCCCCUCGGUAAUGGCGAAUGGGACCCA

# Variants of: B1
# Experiment Notes: self-cleavage, relative activity (ratio to wild type); higher = more cleavage; co-transcriptional
Kindly supply the reported self-cleavage values for the records listed here.

Illustrative cases are given below, each with its answer.
residue_string="GGACGGCAUGGUCCCAGCCUCCUCGCUGGCGCCGGCUGGGCAACAUUCCGAGUGGACCGUCCCCUCGGUAAUGGCGAAUGGGACCCA [C3A G53U]" measurement=0.527
residue_string="GGCCGGCAUGGUCCCAGCCUCCUCGCUGGCGGCGGCUGGGCAACAUUCCGAGGGGACCGUCCCCUCGGGAAUGGCGAAUGGGACCCA [C32G U69G]" measurement=0.0504
residue_string="GGCAGGCAUGGUCCCAGCCUCCUCGCUGGCGCCGGCUGGGCAACAUUCCGAGGGGAACGUCCCCUCGGUAAUGGCGAAUGGGACCCA [C4A C57A]" measurement=0.541
residue_string="GGCCGGCAUGGUCCCAGCCUCCUCGCUGGCGCCGGCUGGGCAACAUUCCGAGGGGACCGUCCCCUCGGUAAGGACGAAUGGGACCCA [U72G G74A]" measurement=0.431
residue_string="GGCCGGCAUGGUCCCAGCCUCCUCGCUGGCGCCGUCUGGGCAACGUUCCGAGGGGACCGUCCCCUCGGUAAUGGCGAAUGGGACCCA [G35U A45G]" measurement=0.365
residue_string="GGCCGGCAUGGUCCCAGCCUCCUCGCUGGCGCCGGCUGGGCACCAUCCCGAGGGGACCGUCCCCUCGGUAAUGGCGAAUGGGACCCA [A43C U47C]" measurement=0.208
residue_string="GGCCGUCAUGGUCCCAGCCUCCUCGCUGGCGCCGGCUGGGCAACAUUCCGAGGGGACCGACCCCUCGGUAAUGGCGAAUGGGACCCA [G6U U60A]" measurement=0.571
residue_string="GGCCGGCAUGGUCCCAGCCUCCUCGCUGGCGCGGGCUGGGCAACGUUCCGAGGGGACCGUCCCCUCGGUAAUGGCGAAUGGGACCCA [C33G A45G]" measurement=0.447

Each variant below has a recorded value; state its self-cleavage.
1. GGCCGGCAUGGUCCCAGCCUCCUCGCUGGCGCAGGGUGGGCAACAUUCCGAGGGGACCGUCCCCUCGGUAAUGGCGAAUGGGACCCA [C33A C36G]
2. GGCCGGCAUGGUCCCAGCCUCCUCGCUGGCGCCGGCUGGGCAACAUUCCGAGGGCACCGUCCCCUCGGUAAUGGCGAAUGGGACCCG [G55C A87G]
3. GGCCGUCAUGGUCCCAGCCUCCUCGCUGGCGCCGGCAGGGCAACAUUCCGAGGGGACCGUCCCCUCGGUAAUGGCGAAUGGGACCCA [G6U U37A]
4. GGCCGGCAUGGUCCCAGCCUCCUCGUUGGCGCCGGCUGGGCAACAUUCCGAGGGGACCGUCCCCUCGGUAAUGGAGAAUGGGACCCA [C26U C75A]

Solution:
1: 0.208; 2: 0.953; 3: 0.0437; 4: 0.154

I need self-cleavage for every entry listed below, if you could help.
1. GGCCGGCAGGUUCCCAGCCUCCUCGCUGGCGCCGGCUGGGCAACAUUCCGAGGGGACCGUCCCCUCGGUAAUGGCGAAUGGGACCCA [U9G G11U]
2. GGCCGGCAUGGUCCCAGCCUCCUCGCUGGCGCCCGCUGGGCAACAUUCCGAGGGGACCCUCCCCUCGGUAAUGGCGAAUGGGACCCA [G34C G59C]
3. GGCCGGCAUGGUACCAGCCUCCUCGCUGGCGCCGGCUGGGCAACAUUCCGAGGGGACCUUCCCCUCGGUAAUGGCGAAUGGGACCCA [C13A G59U]
4. GGCCGGCAUGGUCCCAGCCUCCCCGCUGGCGCCGGCUGGGAAACAUUCCGAGGGGACCGUCCCCUCGGUAAUGGCGAAUGGGACCCA [U23C C41A]

Solution:
[0.532, 0.0811, 0.356, 0.789]
